Catalogue of GHS category values
experiment: GHS categories as the set defines them, by LD50: 1 up to 5, 2 up to 50, 3 up to 300, 4 up to 2000, 5 above 2000 mg/kg; details: rat; in vivo; po
In your answer, state the number alone without any accompanying words.

Answered cases to consult:
COc1ccc2c(c1)CCN(c1ccccc1)C2c1ccc(Cl)cc1 (stereo unspecified) | 4
CCCCCCCCCCCC | 5
COc1ccccc1NC(=O)C(N=Nc1ccc(Cl)cc1[N+](=O)[O-])C(C)=O (stereo unspecified) | 5

Report GHS category for CCCC1OC(Cn2cncn2)(c2cc3ccccc3o2)OCC1(C)C (stereo unspecified) please.
4

Follow-up entry: "CNc1ccc(C(=O)O)cc1[N+](=O)[O-]"
5

Follow-up entry: c1ccc(C2c3ccccc3CCN2c2ccccc2)cc1 (stereo unspecified)
4

Follow-up entry: "CC(=O)[C@@]1(O)CC[C@H]2[C@@H]3C=C(Cl)C4=CC(=O)CC[C@]4(C)[C@H]3CC[C@@]21C"
5

Follow-up entry: "CCCCCCCCCCCCCC(=O)N[C@@H](CCC(=O)O)C(=O)O"
5

---

test: GHS categories as the set defines them, by LD50: 1 up to 5, 2 up to 50, 3 up to 300, 4 up to 2000, 5 above 2000 mg/kg; settings: rat; in vivo; po
Catalogue of GHS category values
In your answer, state the number alone without any accompanying words.

Answered cases to consult:
Cc1nnc(SCCCSc2nnnn2C)o1 | 4
COC(=O)/C=C(/C)N[C@@H](C(=O)O)c1ccc(O)cc1 | 5

--- query ---
Report GHS category for "CC(=O)N(C)C(=O)Oc1cccc2c1OC1(CCCC1)O2" please.
4

---

test: GHS categories as the set defines them, by LD50: 1 up to 5, 2 up to 50, 3 up to 300, 4 up to 2000, 5 above 2000 mg/kg; details: rat; in vivo; po
Experimental endpoint: GHS category
In your answer, state the number alone without any accompanying words.

Answered cases to consult:
COc1ccc(C(=O)C2CC2)cc1 | 4
CC(C)C(=O)OOC(C)(C)C | 5
CC1OC(OC2C(OC(=O)C=Cc3ccc(O)c(O)c3)C(CO)OC3OCC(c4ccc(O)c(O)c4)OC32)C(O)C(O)C1O (configuration not stated) | 5
CC1(C)O[C@@H]2C[C@H]3[C@@H]4C[C@H](F)C5=CC(=O)C=C[C@]5(C)[C@@]4(F)[C@@H](O)C[C@]3(C)[C@]2(C(=O)CO)O1 | 5
CCCCCCCCCCCCCCCc1cccc(OC(=O)c2ccccc2OC(N)=O)c1 | 5
Cc1cccc2ncc(C(=O)NC3CCCCCC3)c(=O)n12 | 3

--- query ---
Report GHS category for "O=S(=O)(c1ccc(Cl)cc1)c1ccc(Cl)cc1" please.
5

---

assay: GHS categories as the set defines them, by LD50: 1 up to 5, 2 up to 50, 3 up to 300, 4 up to 2000, 5 above 2000 mg/kg; details: rat; in vivo; po
Experimental endpoint: GHS category
In your answer, state the number alone without any accompanying words.

Answered cases to consult:
NC(N)=NCc1ccc2c(c1)OCCO2 | 5
COc1ccc([C@@H]2Sc3ccccc3NC(=O)[C@@H]2O)cc1 | 5
NC1=NC(=O)CC(=O)N1 | 5
CCCc1nc(C)c2c(=O)nc(-c3cc(S(=O)(=O)N4CCN(CC)CC4)ccc3OCC)[nH]n12 | 5

Report GHS category for COP(=O)(NC(=O)C(C)C)SC (configuration not stated) please.
4

Follow-up entry: "Cc1cccc(OC(=O)c2ccc(Cl)cc2OC(N)=O)c1"
5

Follow-up entry: "OCCOc1nn(-c2cccc(C(F)(F)F)c2)c2ncccc12"
4

---

test: GHS categories as the set defines them, by LD50: 1 up to 5, 2 up to 50, 3 up to 300, 4 up to 2000, 5 above 2000 mg/kg; settings: rat; in vivo; po
Experimental endpoint: GHS category
In your answer, state the number alone without any accompanying words.

Answered cases to consult:
C[Si](C)(C)O[Si](C)(C)O[Si](C)(C)C | 5
COC(=O)C1=C(C)NC(COC(N)=O)=C(C(=O)OC(C)C)C1c1cccc(Cl)c1Cl (stereo not drawn) | 5

Report GHS category for "Cc1cc2cc3c(C)cc(=O)oc3c(C)c2o1" please.
5

Follow-up entry: "FC(F)(F)c1cccc(C2=CCN(CCc3ccc4ccccc4c3)CC2)c1"
4

Follow-up entry: "COc1ccc(C(=O)CC(=O)c2ccc(C(C)(C)C)cc2)cc1"
5

Follow-up entry: "CC(=O)NCCCOc1ccc(C(=O)N2CCC(N3C(=O)CCc4ccccc43)CC2)cc1"
5

Follow-up entry: "O=C1OC(=O)c2c(Cl)c(Cl)c(Cl)c(Cl)c21"
5

Follow-up entry: "Nc1ccc(OS(=O)(=O)O)c(C(=O)O)c1"
5

Follow-up entry: "COP(=S)(OC)Oc1ccc(/N=N/c2ccc(Cl)cc2)cc1"
4

Follow-up entry: "NCC[C@H](O)C(=O)N[C@@H]1C[C@H](N)[C@@H](O[C@H]2O[C@H](CN)CC[C@H]2N)[C@H](O)[C@H]1O[C@H]1O[C@H](CO)[C@@H](O)[C@H](N)[C@H]1O"
5

Follow-up entry: "CCCc1c(Cc2ccc(-c3ccccc3-c3nn[nH]n3)cc2)c(OCCOC)nc2ncnn12"
4

Follow-up entry: "O=C(OCCCc1ccccc1)c1ccccc1"
5

Follow-up entry: "Cc1cccc2ncc(C(=O)NC(C)C)c(=O)n12"
3

Follow-up entry: "C#C[C@]1(O)CC[C@H]2[C@@H]3CCC4=CC(=O)CC[C@]4(C)[C@H]3CC[C@@]21C"
5

Follow-up entry: CN(C(=O)CC(=O)N(C)c1c(I)c(C(=O)NC(CO)C(O)CO)c(I)c(C(=O)NC(CO)C(O)CO)c1I)c1c(I)c(C(=O)NC(CO)C(O)CO)c(I)c(C(=O)NC(CO)C(O)CO)c1I (stereo not drawn)
5

---

test: GHS categories as the set defines them, by LD50: 1 up to 5, 2 up to 50, 3 up to 300, 4 up to 2000, 5 above 2000 mg/kg; conditions: rat; in vivo; po
Experimental endpoint: GHS category
In your answer, state the number alone without any accompanying words.

Answered cases to consult:
Nc1nc(/C(=C/CC(=O)O)C(=O)N[C@@H]2C(=O)N3C(C(=O)O)=CCS[C@H]23)cs1 | 5
O=c1[nH]c(CCl)nc2sc3c(c12)CCCC3 | 5

--- query ---
Report GHS category for "CCOC(=O)C(=O)Nc1cc(SCCOCCOC)ncn1" please.
4

---

assay: GHS categories as the set defines them, by LD50: 1 up to 5, 2 up to 50, 3 up to 300, 4 up to 2000, 5 above 2000 mg/kg; details: rat; in vivo; po
Catalogue of GHS category values

Report GHS category for "Cn1nnnc1SCCCSc1ccncc1" please.
4

Follow-up entry: "CC[C@H](c1ccc(O)cc1)[C@@H](CC)c1ccc(O)cc1"
5

Follow-up entry: "C[C@H]1C[C@@H]2[C@H]([C@@H](O)C[C@@]3(C)[C@H]2CC[C@]3(O)C(=O)COC(=O)CCC(=O)O)[C@@]2(C)C=CC(=O)C=C12"
5

Follow-up entry: "O=C[C@H](O[C@@H](C=O)[C@@H](O)[C@H](O)[C@H](O)CO)[C@@H](O)[C@H](O)[C@H](O)CO"
5

Follow-up entry: "CC(C)CCCCCC(=O)NCCCCCC(=O)O"
5

Follow-up entry: COc1ccc2c(c1)CCN(c1ccccc1)C2c1ccccc1Cl (stereo not drawn)
4

Follow-up entry: "COc1ccc(C=Nc2ccccc2C(=O)O)cc1"
4

---

Experiment: rat acute oral toxicity
Conditions: in vivo
Description: […]The data set underlying the modeling effort for this project was initially compiled by NICEATM and U.S. EPA’s CCTE. Briefly, LD50 data were collected from rat acute oral systemic toxicity tests, including limit tests, ranges/confidence intervals, and discrete LD50 values. The full data set included 21,200 LD50 entries for 15,688 substances. […]
LD50 strictly less than 3000 mg/kg = 1.0. Otherwise 0.0.

As a guide, the following entries are already answered.
CC1=CC(=O)CC(C)(C)C1 | 1.0
CCN(CC)C(=O)SCc1ccc(Cl)cc1 | 1.0
CCCCN(CC)C(=O)SCCC | 1.0
Clc1cccc(Cl)c1C(Cl)Cl | 1.0
CC(O)COc1ccccc1 (configuration not stated) | 1.0
Nc1nc(N)nc(N)n1 | 0.0

Lab note: next compound to report on.
Does "C1CN(SSN2CCOCC2)CCO1" have LD50 strictly under 3000 mg/kg?
0.0
